# Test system: HCC 2998
# test_method_notes: NCI tumour cell line growth inhibition, 48 h
Activity calls are given as the source filed them. Rule as the data show it: active = GI50 up to about 1.1 µM and inactive = higher.
GI50 by entry:

See these solved cases before continuing.
molecule: COc1cc2c(cc1OC)C1C=NC(C2)c2cc(OC)c(OC)cc21 (stereo unspecified)
GI50: > 100 µM (inactive)
//
molecule: O=C(O)/C=C/n1c2ccccc2c(=O)c2ccccc21
GI50: > 100 µM (inactive)
//
molecule: CN1CN(c2ccccc2)C2(CCN(Cc3csc4ccccc34)CC2)C1=O
GI50: 13.4 µM (inactive)
//
molecule: COc1cc(NCC(C#N)C#N)ccc1/N=N/c1ccc([N+](=O)[O-])cc1
GI50: > 100 µM (inactive)
//
molecule: O=S1(=O)C[C@@H](NCc2ccccc2)[C@H](NCc2ccccc2)C1
GI50: > 100 µM (inactive)

Query O=C1/C(=C/c2ccc3c(c2)OCO3)CCC1CN1CCOCC1 (stereo unspecified) yields GI50 of 8.75 µM (inactive)

Query CC(=O)NC1C(OCc2ccccc2)OC(CO)C(O)C1OCC(=O)NC(C)C(=O)NC(CCC(=O)Nc1ccc2c(c1)CN1C(=O)c3ccccc3C1=N2)C(N)=O (stereo unspecified) yields GI50 of > 100 µM (inactive)

Query N/C(=C\c1ccc(OCc2ccccc2)c(OCc2ccccc2)c1[N+](=O)[O-])C(=O)O yields GI50 of > 100 µM (inactive)

Query Cc1cc(/N=C/c2ccc(Cl)cc2)n(-c2ccccc2)n1 yields GI50 of 24.9 µM (inactive)

Query C/C(=N\N=C(\N)S)c1ccc(Oc2ccccc2)cc1 yields GI50 of 7.93 µM (inactive)

---

# Test system: IGROV-1
# test_method_notes: NCI tumour cell line growth inhibition, 48 h
The source made the active and inactive calls. Cut-off read from the data, not from the text of the source: active = GI50 up to about 1.1 µM and inactive = higher.
// allowed return values: active, inactive

Please review the following examples before continuing.
compound: CCOC(=O)c1c2c(n(-c3ccc(OC)cc3)c1C)C(=O)C(=O)c1ccccc1-2
label_value: inactive
//
compound: Cc1c(C(=O)CSc2nc3cc([N+](=O)[O-])ccc3[nH]2)c(=O)n(-c2ccccc2)n1C
label_value: inactive
//
compound: C=CCN1C(=O)CS/C1=N\NC(=O)CSc1nc2ccccc2c(=O)n1CC
label_value: inactive
//
compound: CC1=CC(=O)/C(=C/n2c(=S)[nH]c3cc(C)ccc32)C(=O)O1
label_value: inactive

query: Query: recorded result category for COc1ccc(Cc2ccccc2C(=O)O)c2ccccc12 in this test
result: inactive

query: Query: recorded result category for CC(C)CCCC(C)[C@H]1CC[C@H]2N/C(=N/c3ccccc3)CCC[C@]12C (stereo not given in full) in this test
result: inactive

query: Query: recorded result category for O=C1/C(=C/c2ccccc2)CN(C(=O)/C=C/c2ccccc2)C/C1=C\c1ccccc1 in this test
result: inactive

query: Query: recorded result category for O=C(CCCN1CCC(Nc2ccccc2)(c2nnnn2C2CCCCC2)CC1)c1ccc(F)cc1 in this test
result: inactive

query: Query: recorded result category for O=C(CC1C(=O)Nc2ccccc2S1(=O)=O)Nc1cccc(Cl)c1 (stereo not given) in this test
result: inactive

query: Query: recorded result category for Cc1ccc2c(O)cc(-c3cccc(Cl)c3)nc2n1 in this test
result: active

---

# System: OVCAR-3
# test_method_notes: NCI tumour cell line growth inhibition, 48 h
Active and inactive are the calls of the source. No stated cut-off is given here; in the data, active = GI50 up to about 1.1 µM and inactive = higher.
// allowed return values: active, inactive

Please review the following examples before continuing.
compound: C=CCNC(=S)N/C=C(\C(=O)OCC)C(=O)C(=O)OCC
label_value: inactive

compound: Cc1ccc(CC(=O)Nc2ccc(NC(=O)CNC(=O)/C=C/c3ccc(-c4ccccc4)cc3)cc2C(=O)c2ccccc2)cc1
label_value: inactive

compound: CN(C)CCCn1c(Cc2ccccc2)nc2cc(C(F)(F)F)ccc21
label_value: inactive

compound: c1ccc(CSSSCc2ccccc2)cc1 [DIBENZYL TRISULFIDE]
label_value: active

compound: CC(=O)OC1CCN(C(=O)c2ccccc2)CC1CC1(c2cc3ccccc3[nH]2)OCCO1 (stereo not given)
label_value: inactive

query: Query: recorded result category for COc1cc2c(cc1OC)C(=O)/C(=C/c1cc(OC)c(OC)c(OC)c1)C2 in this test
result: inactive

query: Query: recorded result category for O=C1CN2C(Cl)(Cl)C2(c2ccccc2)c2cc(Cl)ccc2N1CC(F)(F)F (stereo not given) in this test
result: inactive

query: Query: recorded result category for CCCOC(=O)C1CCC(=O)N1C(=O)C(C)Cl (stereo not given) in this test
result: inactive

query: Query: recorded result category for CC1OC(OC2CCCc3c(O)c4c(c(O)c32)C(=O)c2ccccc2C4=O)CC(N)C1O (stereo not given) in this test
result: inactive

query: Query: recorded result category for CCOc1ccc(/C=C/C(=O)c2sc(NNC(C)=O)nc2C)cc1 in this test
result: inactive

Sourced from ChEMBL document CHEMBL1201862
